Origin of measurements: PubChem BioAssay

experiment notes: change in splice reporter luminescence, either direction, cell-based, HEK293, spliceosome inhibition project, primary screen (AID 1101);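 also: HEK293 cells carrying a splicing-competent luciferase reporter gene; test concentration not given here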
experimental conditions: HEK293 splicing luciferase reporter, 24 h, higher = more signal, called active from +8 up or from −8 down
property label: z-score
The response must contain the number and no unit.

Solved entries (count: 4):
1) O=C(NCc1ccccc1)[C@@H]1c2ccccc2C(=O)N(Cc2ccc(OC(F)(F)F)cc2)[C@H]1c1ccc(CO)cc1; -1.19
2) O=C1C2C=CC(C(O)c3cccs3)N(Nc3ccc([N+](=O)[O-])cc3)C2C(=O)N1c1ccccc1 (configuration not stated); 1.15
3) CCOC(=O)C[C@H]1[C@H](OC(=O)Cc2ccc3c(c2)OCO3)[C@@H](NC(=O)Cc2ccc(OC)cc2)c2cc(OCCCO)ccc2N1C(=O)Cc1ccc(OC)cc1; -2.07
4) O=C1O[C@@H](c2ccccc2)[C@@H](c2ccccc2)N2[C@@H](c3ccc(OCCO)cc3)[C@]3(C(=O)Nc4ccc(C#CC5(O)CCCCCC5)cc43)[C@@H](C(=O)Nc3nc4ccccc4s3)[C@H]12; -0.102

Exercise: Request the reported z-score associated with O=C(NC1CC1)[C@@H]1c2ccccc2C(=O)N(Cc2ccc(OC(F)(F)F)cc2)[C@H]1c1ccc(CO)cc1
Solution: -0.599

Exercise: Request the reported z-score associated with COCCOC(=O)N1C(=O)[C@@]2(c3ccccc31)[C@H](c1ccc(O)cc1)N1[C@H](c3ccccc3)[C@H](c3ccccc3)OC(=O)[C@H]1[C@@H]2C(=O)N1CCCCCCC1
Solution: -0.682

Exercise: Request the reported z-score associated with O=C(NCC(O)CO)[C@@]1(CCS(=O)(=O)c2ccccc2)N=C(c2ccc(OCCCO)cc2)O[C@H]1c1ccccc1 (some centres not stated)
Solution: -0.809

Exercise: Request the reported z-score associated with COc1ccc([Si](C)(C)[C@H]2[C@H](CCO)O[C@@]3(C(=O)N(Cc4ccc(NC(=O)[C@H](C)O)cc4)c4ccccc43)[C@@H]2C)cc1
Solution: -2.32

Exercise: Request the reported z-score associated with CC(C)NC(=O)[C@@]1(c2ccc([N+](=O)[O-])cc2)CC(=O)N(CC23CC4CC(CC(C4)C2)C3)[C@@H]1c1ccc(CO)cc1
Solution: -0.279
